Where do the numbers come from? From patent US20060024698.

# target: T1, DdrA (DR0423) (Deinococcus radiodurans R1, UniProt Q9RX92 SEQ:1-208)
# T1 sequence: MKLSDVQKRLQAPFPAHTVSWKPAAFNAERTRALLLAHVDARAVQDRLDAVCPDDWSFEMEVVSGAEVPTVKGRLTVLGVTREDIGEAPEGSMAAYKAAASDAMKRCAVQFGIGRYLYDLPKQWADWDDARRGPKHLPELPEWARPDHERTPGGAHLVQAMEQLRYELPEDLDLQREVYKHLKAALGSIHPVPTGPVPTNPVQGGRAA
# assay.text: FP; KD,app; 1.0 nM DNA, 30 C, 30 min
# details: tags: untagged, expressed in E. coli from pEAW298; chain copies: 8-10 subunit oligomer in solution by gel filtration (stated); label: 3' fluorescent tag
Property: pKd; scope: individual binders
pKd is a log-scale quantity: -log10 of the concentration expressed in molar.

Answered examples (2):
| binder | pKd |
| --- | --- |
| AAGCACAATTACCCACGC (ssDNA) [18 nt ssDNA] | 6.19 |
| GCGTGGGTAATTGTGCTTCAATGGACTGAC (ssDNA) [30 nt ssDNA] | 6.39 |

We now examine a further binder.
Entry GGCCTCGCGGTAGCTGAGCTCGGAGCGCACGATTCGCACTGCTGATGTTC (ssDNA) [50 nt ssDNA] : reported pKd = ?
6.93
